Each recorded value in this set is attributed to patent US8209131B2.

I'd be grateful if you could share measured kd for these entries.
Experiment: BIAcore binding of proteins to heparin immobilised on a biosensor chip
Settings: IL-4 WT and mutants binding to heparin; in s-1 (unit assumed)

Which kd value belongs to R121A: IL-4 mutant, baculovirus expressed (protein) HKCDITLQEIIKTLNSLTEQKTLCTELTVTDIFAASKNTTEKETFCRAATVLRQFYSHHEKDTRCLGATAQQFHRHKQLIRFLKRLDRNLWGLAGLNSCPVKEANQSTLENFLERLKTIMAEKYSKCSS ?
2.13E−03

Which kd value belongs to R75A: IL-4 mutant, baculovirus expressed (protein) HKCDITLQEIIKTLNSLTEQKTLCTELTVTDIFAASKNTTEKETFCRAATVLRQFYSHHEKDTRCLGATAQQFHAHKQLIRFLKRLDRNLWGLAGLNSCPVKEANQSTLENFLERLKTIMREKYSKCSS ?
3.63E−03
